These data points were gathered from the supplement of paper PMC3334620.

Biological target: Ste12 (UniProt P13574)
Sequence (P13574 whole entry): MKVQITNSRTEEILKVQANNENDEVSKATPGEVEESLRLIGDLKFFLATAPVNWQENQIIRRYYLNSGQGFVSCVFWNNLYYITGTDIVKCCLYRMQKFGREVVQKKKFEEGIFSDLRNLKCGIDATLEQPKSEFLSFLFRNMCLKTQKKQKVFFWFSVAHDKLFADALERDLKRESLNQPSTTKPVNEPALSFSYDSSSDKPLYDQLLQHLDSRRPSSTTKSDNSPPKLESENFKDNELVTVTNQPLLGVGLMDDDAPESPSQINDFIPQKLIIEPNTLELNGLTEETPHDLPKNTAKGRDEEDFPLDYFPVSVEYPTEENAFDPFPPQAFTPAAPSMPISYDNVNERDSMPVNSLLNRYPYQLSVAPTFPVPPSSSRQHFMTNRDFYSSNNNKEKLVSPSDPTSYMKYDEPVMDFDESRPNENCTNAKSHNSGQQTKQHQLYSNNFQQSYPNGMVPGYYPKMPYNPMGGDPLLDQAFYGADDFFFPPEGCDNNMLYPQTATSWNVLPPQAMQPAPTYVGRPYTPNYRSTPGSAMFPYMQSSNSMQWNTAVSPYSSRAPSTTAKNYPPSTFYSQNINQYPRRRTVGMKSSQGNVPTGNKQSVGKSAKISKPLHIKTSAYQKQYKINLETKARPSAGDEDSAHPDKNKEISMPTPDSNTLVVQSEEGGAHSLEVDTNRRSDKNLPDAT
Experiment: PBM E-score (8-mer binding enrichment) (E-score (-0.5 to 0.5)); higher = stronger / more preferred TF binding
Conditions: protein concentration: 200 nM; construct: GST-DNA-binding domain
The full ranking holds about 33,000 sequences; the median of “E-score (-0.5 to 0.5)” is about -0.01, and the highest 2% start at about 0.26. Shown is part of a subset that was picked to be rich in the highest values.
EXPERIMENTAL ENDPOINT: PBM E-score
A bare number is all that is needed in reply.

Worked examples, 3 sequences total:
SEQUENCE CHAIN: ACTGACAA
MEASUREMENT TARGET: Ste12 (UniProt P13574)
PBM E-score: 0.0676
--
SEQUENCE CHAIN: TGTACAAA
MEASUREMENT TARGET: Ste12 (UniProt P13574)
PBM E-score: 0.0309
--
SEQUENCE CHAIN: CGACCGTC
MEASUREMENT TARGET: Ste12 (UniProt P13574)
PBM E-score: -0.173

QUERY: Give PBM E-score for the following sequence: AATGAACC
RESULT: 0.105

QUERY: Give PBM E-score for the following sequence: TATGAAGA
RESULT: 0.0389

QUERY: Give PBM E-score for the following sequence: ATAAGCCC
RESULT: -0.0186

QUERY: Give PBM E-score for the following sequence: TACTATCA
RESULT: 0.13

QUERY: Give PBM E-score for the following sequence: GTTAAAGA
RESULT: 0.0582

QUERY: Give PBM E-score for the following sequence: ATTAAATC
RESULT: 0.248

QUERY: Give PBM E-score for the following sequence: TCTACAAA
RESULT: 0.138

QUERY: Give PBM E-score for the following sequence: CGAAGCCC
RESULT: -0.192

QUERY: Give PBM E-score for the following sequence: TTTACAAA
RESULT: 0.294

QUERY: Give PBM E-score for the following sequence: GATGAACC
RESULT: 0.062

QUERY: Give PBM E-score for the following sequence: AATGAAAT
RESULT: 0.231

QUERY: Give PBM E-score for the following sequence: AACTATTC
RESULT: 0.264

----------
Molecular target: Ste12 (UniProt P13574)
Test: PBM E-score (8-mer binding enrichment) (E-score (-0.5 to 0.5)); higher = stronger / more preferred TF binding
Details: protein concentration: 200 nM; construct: GST-DNA-binding domain
Over roughly 33,000 sequences, “E-score (-0.5 to 0.5)” has its median near -0.01; the highest 2% begin near 0.26. The sample holds the highest values, similar sequences and a random draw of the others, so the mix is not that of the screen.
The label depends only on PBM E-score: criterion met if it is at least -0.02, criterion not met if it is smaller.

SEQUENCE CHAIN: ATACTCGG
ASSIGNED LABEL: criterion met
//
SEQUENCE CHAIN: GGCCGACC
ASSIGNED LABEL: criterion not met
//
SEQUENCE CHAIN: GGATGAAA
ASSIGNED LABEL: criterion met
//
SEQUENCE CHAIN: AGATGAAA
ASSIGNED LABEL: criterion met
//
SEQUENCE CHAIN: AGATGAAC
ASSIGNED LABEL: criterion met

QUERY: Evaluate ATGATGGG : PBM E-score at minimum -0.02?
RESULT: criterion not met

QUERY: Evaluate GGACTAGA : PBM E-score at minimum -0.02?
RESULT: criterion not met

QUERY: Evaluate ACGTTGAT : PBM E-score at minimum -0.02?
RESULT: criterion met

----------
Biological target: Ste12 (UniProt P13574)
Assay: PBM E-score (8-mer binding enrichment) (E-score (-0.5 to 0.5)); higher = stronger / more preferred TF binding
Details: protein concentration: 200 nM; construct: GST-DNA-binding domain
Over roughly 33,000 sequences, “E-score (-0.5 to 0.5)” has its median near -0.01; the highest 2% begin near 0.26. The sample holds the highest values, similar sequences and a random draw of the others, so the mix is not that of the screen.
The label depends only on PBM E-score: TRUE if it is at least 0.03, FALSE if it is smaller.

Worked examples follow.
SEQUENCE CHAIN: TCCCAGAA
ASSIGNED LABEL: FALSE

SEQUENCE CHAIN: GTTTGTTA
ASSIGNED LABEL: TRUE

QUERY: Evaluate ATAGATCG : PBM E-score at minimum 0.03?
RESULT: FALSE

QUERY: Evaluate ATTTGTTC : PBM E-score at minimum 0.03?
RESULT: TRUE

QUERY: Evaluate CTTTGTAA : PBM E-score at minimum 0.03?
RESULT: TRUE

QUERY: Evaluate ATCGAGTA : PBM E-score at minimum 0.03?
RESULT: FALSE

QUERY: Evaluate TATTCAGA : PBM E-score at minimum 0.03?
RESULT: FALSE

QUERY: Evaluate ATTTGTAG : PBM E-score at minimum 0.03?
RESULT: TRUE

QUERY: Evaluate AGTTTCGC : PBM E-score at minimum 0.03?
RESULT: TRUE

QUERY: Evaluate CTTTGTTA : PBM E-score at minimum 0.03?
RESULT: TRUE

QUERY: Evaluate CCCGTAAG : PBM E-score at minimum 0.03?
RESULT: FALSE

QUERY: Evaluate GCACCAGC : PBM E-score at minimum 0.03?
RESULT: FALSE

QUERY: Evaluate ATTTGTTG : PBM E-score at minimum 0.03?
RESULT: TRUE

QUERY: Evaluate ATAAACCC : PBM E-score at minimum 0.03?
RESULT: TRUE

QUERY: Evaluate CCCTAGTA : PBM E-score at minimum 0.03?
RESULT: TRUE

QUERY: Evaluate CGAAGACG : PBM E-score at minimum 0.03?
RESULT: FALSE

QUERY: Evaluate CGAGGTAG : PBM E-score at minimum 0.03?
RESULT: FALSE

----------
Molecular target: Ste12 (UniProt P13574)
Experiment: PBM E-score (8-mer binding enrichment) (E-score (-0.5 to 0.5)); higher = stronger / more preferred TF binding
Settings: protein concentration: 200 nM; construct: GST-DNA-binding domain
The full ranking holds about 33,000 sequences; the median of “E-score (-0.5 to 0.5)” is about -0.01, and the highest 2% start at about 0.26. The sample holds the highest values, similar sequences and a random draw of the others, so the mix is not that of the screen.
The label depends only on PBM E-score: condition met if it is at least 0.2, condition not met if it is smaller.

Worked examples follow.
SEQUENCE CHAIN: GACATTTA
ASSIGNED LABEL: condition not met

SEQUENCE CHAIN: AACATTTA
ASSIGNED LABEL: condition met

SEQUENCE CHAIN: ATGTTTAA
ASSIGNED LABEL: condition not met

SEQUENCE CHAIN: CAAGGAGG
ASSIGNED LABEL: condition not met

SEQUENCE CHAIN: CTGTTTTA
ASSIGNED LABEL: condition met

SEQUENCE CHAIN: ATGTTTTG
ASSIGNED LABEL: condition met

QUERY: Evaluate CTTGAGTC : PBM E-score at minimum 0.2?
RESULT: condition not met

QUERY: Evaluate GTGTTTAA : PBM E-score at minimum 0.2?
RESULT: condition not met

----------
Biological target: Ste12 (UniProt P13574)
Test: PBM E-score (8-mer binding enrichment) (E-score (-0.5 to 0.5)); higher = stronger / more preferred TF binding
Conditions: protein concentration: 200 nM; construct: GST-DNA-binding domain
Whole data set: some 33,000 sequences, median “E-score (-0.5 to 0.5)” near -0.01, cut for the highest 2% near 0.26. This is one part of a sample in which the highest values are shown more often than they occur.
We'd kindly ask you to apply these PBM E-score classes: band A = under -0.05, band B = from -0.05 up to 0.09, band C = 0.09 and over

Worked examples follow.
SEQUENCE CHAIN: ATTCTGAC
MEASUREMENT TARGET: Ste12 (UniProt P13574)
ASSIGNED LABEL: band B
--
SEQUENCE CHAIN: ACAGTTGC
MEASUREMENT TARGET: Ste12 (UniProt P13574)
ASSIGNED LABEL: band B
--
SEQUENCE CHAIN: CATGATCA
MEASUREMENT TARGET: Ste12 (UniProt P13574)
ASSIGNED LABEL: band B
--
SEQUENCE CHAIN: GTCTTATA
MEASUREMENT TARGET: Ste12 (UniProt P13574)
ASSIGNED LABEL: band B
--
SEQUENCE CHAIN: CACTTTGA
MEASUREMENT TARGET: Ste12 (UniProt P13574)
ASSIGNED LABEL: band B
--
SEQUENCE CHAIN: ACTGCGAT
MEASUREMENT TARGET: Ste12 (UniProt P13574)
ASSIGNED LABEL: band A
--
SEQUENCE CHAIN: ACCACCGG
MEASUREMENT TARGET: Ste12 (UniProt P13574)
ASSIGNED LABEL: band B
--
SEQUENCE CHAIN: AACTCCGC
MEASUREMENT TARGET: Ste12 (UniProt P13574)
ASSIGNED LABEL: band A

QUERY: Kindly identify the class of GTCTAAAA .
RESULT: band C

QUERY: Kindly identify the class of AACTTTGC .
RESULT: band B

QUERY: Kindly identify the class of GAAAATTA .
RESULT: band C
